System: T-47D breast
Experiment: NCI-60 one-dose screen, 48 h (100 = growth as untreated, 0 = no growth, -100 = all killed)
Settings: 10 µM unless noted
Compounds without any hit were thinned out: in the full panel of roughly 83,000, 20% have a hit.
List of growth values.
Form entry: value (%) — number only.

compound: COc1nc2ccc(C)cc2cc1/C=[N+](\[O-])c1ccccc1
output unit: %
growth: 66.5
//
compound: CCCCSc1ccc2nc(-c3ccc(OCCCN=C(N)N)cc3)cn2c1
output unit: %
growth: 90.7
//
compound: Nc1nc(Nc2cccnc2)sc1C(=O)c1ccccc1F
output unit: %
growth: 33
//
compound: CCCN1C(=O)/C(=c2\sc3n(c2=O)C2C(NN=3)N(CC)C(=O)N2CC)c2ccccc21 (stereo not given)
output unit: %
growth: 27.8

Could you now look at the following compound, please?
Entry `CCNC(=S)n1nc(SC)c(C(=O)OCC)c1N` needs its growth filled in; supply it. 86.4

###

Test system: TK-10 renal
Assay: NCI-60 one-dose screen, 48 h (100 = growth as untreated, 0 = no growth, -100 = all killed)
Conditions: 10 µM unless noted
Compounds without any hit were thinned out: in the full panel of roughly 83,000, 20% have a hit.
value type: growth (%)
Respond numerically; units are % and should not be typed.

molecule: C[C@@H]1O[C@@H](O[C@H]2[C@@H](OC(=O)[C@]34CCC(C)(C)C[C@H]3C3=CC[C@@H]5[C@@]6(C)C[C@H](O)[C@H](O[C@@H]7O[C@H](CO)[C@@H](O)[C@H](O)[C@H]7O)[C@@](C)(CO)[C@@H]6CC[C@@]5(C)[C@]3(C)C[C@H]4O)OC[C@@H](O)[C@@H]2O)[C@H](O)[C@H](O[C@@H]2OC[C@@H](O)[C@H](O[C@@H]3OC[C@](O)(CO)[C@H]3O[C@@H]3OC[C@@H](O)[C@H](O)[C@H]3O)[C@H]2O)[C@H]1O[C@@H]1OC[C@](O)(CO)[C@H]1O
experimental result: 74.2
//
molecule: O=C(/C=C/c1ccc([N+](=O)[O-])cc1)c1ccccc1
experimental result: 68.9
//
molecule: C[C@@H]1CC[C@@H]2[C@@H]1[C@H](OC(=O)/C=C/c1ccccc1)[C@]1(c3ccccc3)C[C@@H](NC(=O)CO)[C@@]2(C)O1
experimental result: 112
//
molecule: C=CCOc1ccc(/C=C2\SC(=S)N(CCc3ccc(O)cc3)C2=O)cc1
experimental result: 106
//
molecule: O=C(NNC(=S)Nc1ccccc1)c1ccncc1
experimental result: 102

In one line, give reported growth of the entry `C#Cc1cc(C(=O)Nc2ccc(CN3CCN(C)CC3)c(C(F)(F)F)c2)ccc1C` . 94.7

Please give the documented growth of `N#C/C(=C\c1ccccc1Cl)c1cc2ccccc2[nH]1` 130

###

System: SW-620 colon
Test: NCI-60 one-dose screen, 48 h (100 = growth as untreated, 0 = no growth, -100 = all killed)
Conditions: 10 µM unless noted
The panel holds about 83,000 compounds, 20% with a hit somewhere; the sample as a whole holds those more often.
Reported growth by item:
Return type: number; implicit unit %.

Some solved cases for reference:
molecule: N#Cc1ccccc1OCC(=O)Nc1nc2c(s1)COc1ccccc1-2
assay target: SW-620 colon
output unit: %
experimental result: 103

molecule: CNC(=O)c1cc(Oc2ccc3nc(NC(=O)Nc4ccc(C(F)(F)F)cc4)sc3c2)ccn1
assay target: SW-620 colon
output unit: %
experimental result: 37.9

molecule: [2H]C([2H])([2H])Oc1cccc(/C=C/C(=O)/C=C(/C=C/c2cccc(OC([2H])([2H])[2H])c2OC([2H])([2H])[2H])OB(F)F)c1OC([2H])([2H])[2H]
assay target: SW-620 colon
output unit: %
experimental result: 46.7

molecule: COc1cc(CNC(=O)CCCC/C=C/C(C)C)ccc1O
assay target: SW-620 colon
output unit: %
experimental result: 113

molecule: CC(=O)N1N=C(c2ccc(Nc3nc(Nc4ccc(F)cc4)nc(Nc4ccc(Cl)cc4)n3)cc2)CC1c1ccc(N(C)C)cc1 (centres undefined)
assay target: SW-620 colon
output unit: %
experimental result: 78.5

molecule: CN1C(=O)/C(=C/c2ccc(C(=O)Nc3ncc(Cc4ccccc4Cl)s3)cc2)SC1=S
assay target: SW-620 colon
output unit: %
experimental result: 62

molecule: O=C1c2cc3c(cc2-c2c1c1ccc(Cl)cc1c(=O)n2CCCn1ccnc1)OCO3
assay target: SW-620 colon
output unit: %
experimental result: 1.05

molecule: COc1ccc(/C=C2\COc3ccc(O)c(O)c3C2=O)c(OC)c1OC
assay target: SW-620 colon
output unit: %
experimental result: 9.64

Then there is this molecule:
Recall and state the measured growth for `COc1ccc(C/C(C)=C(\c2ccc(O)cc2)c2ccc(OCCCN(C)C)cc2)cc1` . 95.2
